Documented PBM binding z-score across a set of sequences
Tested on: RXRa homodimer (NR concentration 180 nM)
procedure.summary: PBM binding z-score (relative to random genomic background probes); higher = stronger binding; sequences stand for … in GC…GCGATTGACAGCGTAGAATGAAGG
property.name: PBM binding z-score

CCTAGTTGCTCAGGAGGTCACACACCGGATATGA; 4.71
GCATATAGGTAATACAAGGTTAAAGTCCGATTGT; 1.39
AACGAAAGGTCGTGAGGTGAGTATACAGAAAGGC; 5.2
TCTAGTTGGTCAAAGGTCGCACACTCGAAATGCG; 5.6

* * *

Examples of sequences with documented PBM binding z-score follow.
Test system: LXRb homodimer (NR concentration 270 nM)
procedure.summary: PBM binding z-score (relative to random genomic background probes); higher = stronger binding; sequences stand for … in GC…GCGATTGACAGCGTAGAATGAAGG
property.name: PBM binding z-score

CCGACTGGGGCGAAGGTTACCATACTCAGTACGA; -1.24
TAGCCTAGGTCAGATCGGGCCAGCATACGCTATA; -0.807
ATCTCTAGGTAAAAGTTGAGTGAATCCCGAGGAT; 0.531
TCGAGTAGGTTACCAATGGGGCATACAGCTTTCT; -0.663
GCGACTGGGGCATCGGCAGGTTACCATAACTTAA; -0.797
TCTGCTAGGTCAGATGGTCAGCTAACGAGCTGCC; -0.258
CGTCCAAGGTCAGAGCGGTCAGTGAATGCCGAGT; -0.231
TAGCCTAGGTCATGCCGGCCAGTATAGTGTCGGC; -0.0168
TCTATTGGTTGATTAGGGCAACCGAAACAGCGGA; 0.775
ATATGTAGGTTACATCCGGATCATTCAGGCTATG; 0.498
ACTTGTTGGTCAGCTGAGGTCACACACAATTCGG; 0.632
CCTAGTTGGTCAAGGTCAAACACGCTATAGGTAC; 1.24
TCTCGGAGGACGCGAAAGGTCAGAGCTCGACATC; -0.501
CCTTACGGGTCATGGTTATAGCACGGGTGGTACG; -0.0469
TCTTGTTGATCAAGCAGGTTAAGAAAGCCTGAGT; -0.269
CGAACGAAGGCATGAGTTGATAGCAAATGCCGAT; -1.09
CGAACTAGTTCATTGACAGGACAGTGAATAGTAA; -0.317
ATCGAAAGGTCGATGAGGTGAGTATACACCGTTT; 0.539
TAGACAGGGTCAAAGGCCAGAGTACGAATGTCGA; 0.611

* * *

# PBM binding z-score values compiled below
Tested on: THRa:RXRa (NR concentration 90 nM, RXRa partner concentration 90 nM)
procedure.summary: PBM binding z-score (relative to random genomic background probes); higher = stronger binding; sequences stand for … in GC…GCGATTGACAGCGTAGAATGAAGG
property.name: PBM binding z-score

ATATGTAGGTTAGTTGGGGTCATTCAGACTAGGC; 5.13
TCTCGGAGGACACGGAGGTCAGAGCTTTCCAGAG; 3.34
TGAAAGAGGTTATAAGATCAGGGAACGTTGCAAA; 0.935
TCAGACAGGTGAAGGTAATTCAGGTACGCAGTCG; 1.81
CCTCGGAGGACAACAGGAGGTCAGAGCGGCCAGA; 2.87
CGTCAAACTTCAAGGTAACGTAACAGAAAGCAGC; 1.73
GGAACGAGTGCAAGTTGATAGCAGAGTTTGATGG; -0.241
CCTTACGGGTCACTGACAGGTGATAGCATTTGGA; 3.23
GGAACGAGGGGATTCGAGTTGATAGCATGGCGAT; 0.618
ACTTACGGGTCAACGAGGTTATCGCACGCGTATA; 4.19
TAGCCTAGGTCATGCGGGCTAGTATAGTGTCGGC; 3.15
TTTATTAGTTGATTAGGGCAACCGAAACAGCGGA; 0.999
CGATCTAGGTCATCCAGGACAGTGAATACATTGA; 3.78
CTCGAAAGGTCGGTTGAGGTGAGTTTACGGATAA; 4.97
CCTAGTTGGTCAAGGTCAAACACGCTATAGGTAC; 4.07
AATACAGGGTCTCTAGGCCAGAGTAGGTACGAAT; 0.0248
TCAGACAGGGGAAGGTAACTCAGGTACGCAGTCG; 1.38
